- Tested on: A498 renal
- protocolDescription: NCI-60 one-dose screen, 48 h (100 = growth as untreated, 0 = no growth, -100 = all killed)
- testConditions: 10 µM unless noted
Compounds without any hit were thinned out: in the full panel of roughly 83,000, 20% have a hit.
measuredMetric: growth (%)
# number only, unit % dropped from output

Enquiry: State the recorded growth for this entry: CS(=O)(=O)c1nccc(-c2c(-c3ccc(F)c(OCc4ccccc4)c3)nc3sccn23)n1
Return: 80.3

Enquiry: State the recorded growth for this entry: CC(=O)Nc1ccc(C)c(Nc2cc(-c3ccc(-n4cccn4)cc3)[nH]n2)c1
Return: 27.3

Enquiry: State the recorded growth for this entry: CS(=O)(=O)c1ccc2c(c1)c1c(n2C(=O)c2ccc(Cl)cc2)CCCC1
Return: 38.2

Enquiry: State the recorded growth for this entry: COc1ccc(OC)c(NC2=C(Cl)C(=O)C(C)=C(C)C2=O)c1
Return: 91.6

Enquiry: State the recorded growth for this entry: O=C(CN1CCN(c2cc(=O)n(-c3ccccc3)c3ccccc23)CC1)Nc1ccc([N+](=O)[O-])cc1
Return: 88.2

Enquiry: State the recorded growth for this entry: CCC(CC)n1c(=O)c(SC2=NC3C(NN2)N(CC)C(=O)N3CC)c(C(=O)O)c2ccccc21 (configuration not stated)
Return: -10.5

Enquiry: State the recorded growth for this entry: NS(=O)(=O)Oc1ccc2nc(Nc3ccc(F)c(F)c3)ccc2c1
Return: 74.5

Enquiry: State the recorded growth for this entry: CCOC(=O)/C(F)=C/C1CC1C1CCCCC1 (configuration not stated)
Return: 97.2

Enquiry: State the recorded growth for this entry: COc1cc([C@H]2OC[C@H]3[C@@H]2CO[C@@H]3c2ccc(O)c(OC)c2)ccc1O
Return: 112

Enquiry: State the recorded growth for this entry: O=C1c2c(c3c4ccc(Br)cc4oc3c3[nH]c4ccccc4c23)C(=O)N1CCO
Return: 52.4

Enquiry: State the recorded growth for this entry: CC(=O)c1sc(Nc2cccc(Nc3nc(C)c(C)s3)c2)nc1C
Return: 27.7

Enquiry: State the recorded growth for this entry: CCN1C(=O)N(CC)C2SC(N/N=C/c3ccc(F)cc3)=NC21 (configuration not stated)
Return: -22.4

* * *

- Test system: OVCAR-5 ovarian
- protocolDescription: NCI-60 one-dose screen, 48 h
- testConditions: 10 µM unless noted
- Experimental: Growth inhibition of the OVCAR-5 human tumor cell line is measured as a screen for anti-cancer activity. Cells are grown in 96 well plates and exposed to the test compound for 48 hours. Compounds are tested at a single concentration, which is 10^-5 M for most compounds. The reported endpoint is percent growth (GI% or GIPRCNT), where numbers from 0 - 100% represent growth inhibition, and numbers from -100% - 0 represent cell death. For example, a value of 40 represents 60% growth inhibition. […]
This is part of a sample that, as a whole, favours compounds with a hit. Of some 83,000 tested, about 20% had one in any assay. Activity calls are given as the source filed them. How the source made its calls: active means growth percent below 10; inactive means the rest.
Entry note: the call must match one of T for active, F for inactive

Enquiry: Short answer needed: outcome of this test for O=C1c2c(O)cc(O)cc2O[C@@H](c2ccc(O)cc2)[C@@H]1c1c(O)cc(O)c2c(=O)cc(-c3ccc(O)c(O)c3)oc12 ?
Return: F

Enquiry: Short answer needed: outcome of this test for COC(=O)Nc1ccc(-c2nc(-c3cccc(O)c3)c(-c3ccnc(Br)c3)[nH]2)cc1 ?
Return: F

Enquiry: Short answer needed: outcome of this test for CCC(CC)n1c(=O)c(SC2=NC3C(NN2)N(CC)C(=O)N3CC)c(C(=O)O)c2ccccc21 (stereo unspecified) ?
Return: F

Enquiry: Short answer needed: outcome of this test for O=C1[C@@H]2Cc3c([nH]c4ccccc34)[C@H](c3c(Cl)cccc3Cl)N2C(=O)CN1C1CCN(Cc2ccccc2)CC1 ?
Return: F

Enquiry: Short answer needed: outcome of this test for O=S(=O)(Nc1ccc(-c2nc(-c3cccc(O)c3)c(-c3ccnc(Br)c3)[nH]2)cc1)c1ccccc1 ?
Return: F

Enquiry: Short answer needed: outcome of this test for O=C(CN1C(=O)S/C(=C\c2ccccc2)C1=O)Nc1ccc(C(=O)/C=C/c2cc3ccccc3nc2Cl)cc1 ?
Return: F

Enquiry: Short answer needed: outcome of this test for COc1cc2c3c(n(CCCNC4CCCC4)c(=O)c2cc1OC)-c1cc2c(cc1C3=O)OCO2 ?
Return: T

Enquiry: Short answer needed: outcome of this test for CC(=O)Nc1ccc(NC(=O)Nc2cccc(-c3nc(-c4ccc(NC(=O)c5cccnc5)cc4Cl)no3)c2)cc1C(F)(F)F ?
Return: T

Enquiry: Short answer needed: outcome of this test for COc1ccc(C(=O)c2c(N)c(C#N)cn2-c2cccc(OC)c2)cc1 ?
Return: F

Enquiry: Short answer needed: outcome of this test for COc1cc2c3c(n(CCCNC4CCCCC4)c(=O)c2cc1OC)-c1cc2c(cc1C3=O)OCO2 ?
Return: T

Enquiry: Short answer needed: outcome of this test for N/C(=N\c1nc2c(Cl)cccc2s1)C(Cl)(Cl)Cl ?
Return: F

Enquiry: Short answer needed: outcome of this test for O=C(Nc1cccc(Cl)c1)Nc1nc2ccc(-c3cccc4ccccc34)cc2s1 ?
Return: F

Enquiry: Short answer needed: outcome of this test for Cc1ccc(/C=C/c2nn3c(-c4ccco4)nnc3s2)cc1 ?
Return: F

Enquiry: Short answer needed: outcome of this test for CC(=O)NC(C)(C)C(=O)N[C@@H](C)C(=O)NC(C)(C)C(=O)N[C@@H](C)C(=O)NC(C)(C)C(=O)N[C@@H](C)C(=O)N[C@@H](CCC(N)=O)C(=O)NC(C)(C)C(=O)N[C@H](C(=O)NC(C)(C)C(=O)NCC(=O)N[C@@H](CC(C)C)C(=O)NC(C)(C)C(=O)N1CCC[C@H]1C(=O)N[C@H](C(=O)NC(C)(C)C(=O)NC(C)(C)C(=O)N[C@@H](CCC(N)=O)C(=O)N[C@@H](CCC(N)=O)C(=O)N[C@H](CO)CC1CCCCC1)C(C)C)C(C)C ?
Return: F

Enquiry: Short answer needed: outcome of this test for C/C=C/C=C1\C[C@H]2CO[C@H](O2)C1=O ?
Return: F

Enquiry: Short answer needed: outcome of this test for O=C(COc1ccc(/C=C2\SC(=O)NC2=O)cc1)Nc1ccc(C(=O)/C=C/c2cc3ccccc3nc2Cl)cc1 ?
Return: F

Enquiry: Short answer needed: outcome of this test for COc1ccc(-c2nc3cc(Cl)c(Cl)cc3n2CC(=O)N=Nc2c(O)[nH]c3ccccc23)cc1 ?
Return: F

Enquiry: Short answer needed: outcome of this test for CN(C)c1ccc(/C=N/Nc2nc(N/N=C/c3ccc(N(C)C)cc3)nc(N3CCOCC3)n2)cc1 ?
Return: F

Enquiry: Short answer needed: outcome of this test for CCOC(=O)C1=C(C)N=C2Sc3ccccc3N2C1c1ccccc1 (stereo unspecified) ?
Return: F

Enquiry: Short answer needed: outcome of this test for COc1ccc(Cn2cc3c(c2-c2cc(OC)c(OC)c(OC)c2)CCCc2cnoc2-3)cc1 ?
Return: F

Enquiry: Short answer needed: outcome of this test for Cc1cc(Cl)cc(NS(=O)(=O)c2ccc(-c3cnc(C4CC4)o3)cc2)c1 ?
Return: F

Enquiry: Short answer needed: outcome of this test for O=C1c2c(c3c4cc(Br)ccc4[nH]c3c3ccc4ccccc4c23)C(=O)N1CCN1CCCCC1 ?
Return: F

Enquiry: Short answer needed: outcome of this test for Cc1ccccc1/C=C/c1nn2c(-c3ccoc3C)nnc2s1 ?
Return: F

Enquiry: Short answer needed: outcome of this test for CC(C)N=C(N/C(N)=N/c1nc2ccccc2s1)NC(C)C ?
Return: F

Enquiry: Short answer needed: outcome of this test for Cc1[nH]nc2ccc(-c3nc4cnc(N5CCN(C)CC5)cn4c3Nc3ccc(F)cc3Br)cc12 ?
Return: F

Enquiry: Short answer needed: outcome of this test for C#CCOc1ccc(C(Nc2ccc(Cl)cc2)c2nnnn2C2CCCCC2)cc1 (stereo unspecified) ?
Return: F

These entries and their values trace back to PubChem BioAssay (NCI).
